Form field: IL-10 level (% of control) (one value per entry).
Tested on: Mus musculus
Measurement Notes: The compound (10 mg/kg) administered perorally was tested for its ability to augment IL-10 in LPS-stimulated mice
Type: functional

# Compound, Measurement Unit, IL-10 level (% of control)
records = [
    ("CC(=O)NC(C)(C)c1ccc(CN2CCN(c3ncccn3)CC2)cc1", "%", 200),
    ("CC(=O)NC(C)c1ccc(CN2CCN(c3ccccc3)CC2)cc1 (stereo unspecified)", "%", 270),
    ("CC(=O)NCc1ccc(CN2CCN(c3ncccn3)CC2)cc1", "%", 713),
    ("CC(=O)NCc1ccc(CN2CCN(c3cccnc3)CC2)cc1", "%", 236),
    ("CC(=O)NCc1ccc(CN2CCN(c3nccn3C)CC2)cc1", "%", 747),
    ("CCC(NC(C)=O)c1ccc(CN2CCN(c3ccccc3)CC2)cc1 (stereo unspecified)", "%", 222),
]

====

Tested on: Mus musculus
Measurement Notes: The compound (10 mg/kg) administered perorally was tested for its ability to augment IL-10 in LPS-stimulated mice
Format: functional

# Compound, IL-10 level (% of control) / %
records = [
    ("CC(=O)NC(C)c1ccc(CN2CCN(c3cccc(F)n3)CC2)cc1 (configuration not stated)", 404),
    ("CC(=O)NCc1ccc(CN2CCN(c3ccccc3)CC2)cc1", 376),
    ("CC(=O)NCc1ccc(CN2CCN(c3cnccn3)CC2)cc1", 334),
    ("CC(=O)NC(C)(C)c1ccc(CN2CCN(c3ccccc3)CC2)cc1", 561),
    ("CC(=O)NC(C)c1ccc(CN2CCN(c3ncccn3)CC2)cc1 (configuration not stated)", 298),
    ("CC(=O)NC1(c2ccc(CN3CCN(c4cccc(F)n4)CC3)cc2)CC1", 454),
    ("CC(=O)NC(C)c1ccc(CN2CCN(c3nccs3)CC2)cc1 (configuration not stated)", 621),
    ("CC(=O)NC(C)(C)c1ccc(CN2CCN(c3cccc(F)n3)CC2)cc1", 579),
    ("CCC(CC)(NC(C)=O)c1ccc(CN2CCN(c3ccccc3)CC2)cc1", 321),
    ("CC(=O)NCc1ccc(CN2CCN(c3ccncc3)CC2)cc1", 198),
    ("CC(=O)NC1(c2ccc(CN3CCN(c4ncccn4)CC3)cc2)CC1", 419),
    ("CC(=O)NCc1ccc(CN2CCN(c3cccc(F)n3)CC2)cc1", 973),
]

====

Form field: logP (one value per entry).
Measurement Notes: Partition coefficient (logP)
Cond: octanol/water
Reported Property: logP

# Molecule, Reported Property, Value Observed
measured = [
    ("CC(=O)NC(C)c1ccc(CN2CCN(c3cccc(F)n3)CC2)cc1 (stereo unspecified)", "logP", 1.99),
    ("CCC(CC)(NC(C)=O)c1ccc(CN2CCN(c3ccccc3)CC2)cc1", "logP", 3.35),
    ("CC(=O)NCc1ccc(CN2CCN(c3ncccn3)CC2)cc1", "logP", 0.4),
    ("CC(=O)NC(C)(C)c1ccc(CN2CCN(c3ccccc3)CC2)cc1", "logP", 2.83),
    ("CC(=O)NC1(c2ccc(CN3CCN(c4ccccc4)CC3)cc2)CC1", "logP", 1.9),
    ("CC(=O)NC(C)c1ccc(CN2CCN(c3nccs3)CC2)cc1 (stereo unspecified)", "logP", 1.76),
    ("CC(=O)NCc1ccc(CN2CCN(c3ccncc3)CC2)cc1", "logP", 0.51),
    ("CC(=O)NC1(c2ccc(CN3CCN(c4cccc(F)n4)CC3)cc2)CC1", "logP", 1.8),
    ("CC(=O)NC(C)(C)c1ccc(CN2CCN(c3nccs3)CC2)cc1", "logP", 2.01),
    ("CC(=O)NCc1ccc(CN2CCN(c3cnccn3)CC2)cc1", "logP", -0.09),
    ("CC(=O)NCc1ccc(CN2CCN(c3nccn3C)CC2)cc1", "logP", 0.67),
]

====

Tested on: Rattus norvegicus
Measurement Notes: The compound (10 mg/kg) was tested for its therapeutic effect in an adjuvant-induced arthritis rat
Assay type: functional
Form field: Therapeutic effect (one value per entry).

# Compound, Measurement Unit, Therapeutic effect
measured = [
    ("CC(=O)NCc1ccc(CN2CCN(c3ccccn3)CC2)cc1", "%", 62),
    ("CC(=O)NCc1ccc(CN2CCN(c3nccs3)CC2)cc1", "%", 80),
    ("CC(=O)NC1(c2ccc(CN3CCN(c4cccc(F)n4)CC3)cc2)CC1", "%", 55),
    ("CC(=O)NC(C)(C)c1ccc(CN2CCN(c3nccs3)CC2)cc1", "%", 131),
    ("CC(=O)NCc1ccc(CN2CCN(c3ncccn3)CC2)cc1", "%", 46),
    ("CC(=O)NCc1ccc(CN2CCN(c3cccc(F)n3)CC2)cc1", "%", 144),
    ("CC(=O)NC1(c2ccc(CN3CCN(c4ncccn4)CC3)cc2)CC1", "%", 163),
    ("CC(=O)NC(C)c1ccc(CN2CCN(c3nccs3)CC2)cc1 (stereo unspecified)", "%", 101),
    ("CC(=O)NC(C)(C)c1ccc(CN2CCN(c3cccc(F)n3)CC2)cc1", "%", 142),
    ("CC(=O)NC1(c2ccc(CN3CCN(c4nccs4)CC3)cc2)CC1", "%", 133),
    ("CC(=O)NC(C)c1ccc(CN2CCN(c3cccc(F)n3)CC2)cc1 (stereo unspecified)", "%", 173),
]

====

Test system: Mus musculus
Measurement Notes: The compound (10 mg/kg) administered perorally was tested for its ability to augment IL-10 in LPS-stimulated mice
Type: functional
Form field: IL-10 level (% of control) (one value per entry).

# Smiles String, Tested Target, Measurement Unit, IL-10 level (% of control)
measured = [
    ("CC(=O)NC1(c2ccc(CN3CCN(c4nccs4)CC3)cc2)CC1", "Mus musculus", "%", 646),
    ("CC(=O)NCc1ccc(CN2CCN(c3ccccn3)CC2)cc1", "Mus musculus", "%", 642),
    ("CC(=O)NCc1ccc(CN2CCN(c3nccs3)CC2)cc1", "Mus musculus", "%", 1150),
    ("CC(=O)NC1(c2ccc(CN3CCN(c4ccccc4)CC3)cc2)CC1", "Mus musculus", "%", 712),
    ("CC(=O)NC(C)(C)c1ccc(CN2CCN(c3nccs3)CC2)cc1", "Mus musculus", "%", 712),
    ("CC(=O)NCc1ccc(CN2CCN(c3ccc(F)cc3F)CC2)cc1", "Mus musculus", "%", 2293),
]
